Tested on: 186277-243-T-J2-PDC complex spheroid viability;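 note: 7 day exposure to compounds; 100% = DMSO vehicle control viability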
Test: Anticancer human tumor 186277-243-T-J2-PDC patient-derived colon adenocarcinoma cell line growth inhibition
Settings: second compound 10 µM; first compound 0.00316 µM; active compounds read low
Recorded Metric: viability, T/C (%)
Give a bare numeral; the unit % is implied.

query: Write down viability, T/C measured for item CC(C)CC(NC(=O)C(Cc1ccccc1)NC(=O)c1cnccn1)B(O)O (configuration not stated) + NC1CC1c1ccc(-c2cccc(O)c2)cc1
result: 0.13

query: Write down viability, T/C measured for item Cn1ncnc1C1c2n[nH]c(=O)c3cc(F)cc(c23)NC1c1ccc(F)cc1 (configuration not stated) + NC1CC1c1ccc(-c2cccc(O)c2)cc1
result: 127

query: Write down viability, T/C measured for item O=C(C=Cn1cnc(-c2cc(C(F)(F)F)cc(C(F)(F)F)c2)n1)NNc1cnccn1 + NC1CC1c1ccc(-c2cccc(O)c2)cc1
result: 94.1

query: Write down viability, T/C measured for item CC[C@@]1(O)C(=O)OCc2c1cc1n(c2=O)Cc2cc3c(CN(C)C)c(O)ccc3nc2-1 + NC1CC1c1ccc(-c2cccc(O)c2)cc1
result: 123

query: Write down viability, T/C measured for item Cn1ncnc1C1c2n[nH]c(=O)c3cc(F)cc(c23)NC1c1ccc(F)cc1 (configuration not stated) + NC1CCC(NC2CC2c2ccccc2)CC1
result: 102

query: Write down viability, T/C measured for item Nc1ncn(C2CC(O)C(CO)O2)c(=O)n1 (configuration not stated) + NC1CCC(NC2CC2c2ccccc2)CC1
result: 113

query: Write down viability, T/C measured for item CC(C)CC(NC(=O)C(Cc1ccccc1)NC(=O)c1cnccn1)B(O)O (configuration not stated) + NC1CCC(NC2CC2c2ccccc2)CC1
result: 62
